- assay.method.text: Pharmacokinetics of IM and CGP74588 in patient plasma
- Format: in vivo, human
- experimental.context: human, plasma, oral, 400 mg
Structures can show the parent of a compound that is named as a salt.
endpoint: AUC(0-inf) (ng·h/mL)
Record the value in ng·h/mL, omitting the unit from your answer.

Given Cc1ccc(NC(=O)c2ccc(CN3CCN(C)CC3)cc2)cc1Nc1nccc(-c2cccnc2)n1 [IM, imatinib mesylate] , state its recorded AUC(0-inf).
39700

----------
- assay.method.text: Pharmacokinetics of IM and CGP74588 in patient plasma
- Assay type: in vivo, human
- experimental.context: human, plasma, im, 400 mg/day
Structures can show the parent of a compound that is named as a salt.
endpoint: AUC(0-inf) (ng·h/mL)
Kindly answer with a numeric value in ng·h/mL, unit omitted.

Any idea what AUC(0-inf) was measured for Cc1ccc(NC(=O)c2ccc(CN3CCN(C)CC3)cc2)cc1Nc1nccc(-c2cccnc2)n1 [IM, imatinib mesylate] ?
64100
